Origin of measurements: patent US20120316071A1

# reported Signal/Blank; entries follow
testedSystem: T1, Recombinant Human DLL4 (R&D Systems Cat#1506-D4/CF) (human, UniProt Q9NR61 27-524)
T1 construct: Bought recombinant protein; also called delta-like protein 4; rHuman DLL4
procedureDetails: ECL multispot (MSD) binding assay, DLL4 signal over blank spot; Fab concentration not given
// no unit, no text: just the number

| binder | Signal/Blank |
| --- | --- |
| Fab VH1-46_IGHD6-6*01_IGHJ1*01 S102A/S103P/S104F/H111F (APFF) & L6_IGKJ1*01 S28W (Fab, V domains shown, Fab expressed in E. coli: VH joined to CH1 (Plasmid A, His6 and Flag tags), VL joined to kappa CL (Plasmid C); also called APFF S28W) VH: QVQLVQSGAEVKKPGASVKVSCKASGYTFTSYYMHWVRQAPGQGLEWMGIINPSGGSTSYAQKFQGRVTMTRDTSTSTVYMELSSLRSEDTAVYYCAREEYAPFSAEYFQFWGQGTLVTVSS VL: EIVLTQSPATLSLSPGERATLSCRASQWVSSYLAWYQQKPGQAPRLLIYDASNRATGIPARFSGSGSGTDFTLTISSLEPEDFAVYYCQQRSNWPPWTFGQGTKVEIKR | 545 |
| Fab VH1-46_IGHD6-6*01_IGHJ1*01 S102A/S103P/S104F/H111F (APFF) & L6_IGKJ1*01 S30G (Fab, V domains shown, Fab expressed in E. coli: VH joined to CH1 (Plasmid A, His6 and Flag tags), VL joined to kappa CL (Plasmid C); also called APFF S30G) VH: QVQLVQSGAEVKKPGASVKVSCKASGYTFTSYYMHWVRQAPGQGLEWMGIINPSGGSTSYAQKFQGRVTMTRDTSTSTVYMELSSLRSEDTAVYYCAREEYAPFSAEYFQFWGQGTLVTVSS VL: EIVLTQSPATLSLSPGERATLSCRASQSVGSYLAWYQQKPGQAPRLLIYDASNRATGIPARFSGSGSGTDFTLTISSLEPEDFAVYYCQQRSNWPPWTFGQGTKVEIKR | 664 |

Please find the next binder below.
Endpoint output: Signal/Blank of Fab VH1-46_IGHD6-6*01_IGHJ1*01 S102A/S103P/S104F/H111F (APFF) & L6_IGKJ1*01 S28I (Fab, V domains shown, Fab expressed in E. coli: VH joined to CH1 (Plasmid A, His6 and Flag tags), VL joined to kappa CL (Plasmid C); also called APFF S28I) VH: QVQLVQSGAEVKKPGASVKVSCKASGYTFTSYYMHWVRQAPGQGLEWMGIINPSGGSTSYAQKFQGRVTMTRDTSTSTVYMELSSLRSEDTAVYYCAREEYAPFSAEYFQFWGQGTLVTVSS VL: EIVLTQSPATLSLSPGERATLSCRASQIVSSYLAWYQQKPGQAPRLLIYDASNRATGIPARFSGSGSGTDFTLTISSLEPEDFAVYYCQQRSNWPPWTFGQGTKVEIKR . Value?
309
